B1: tRNA (parent)
chain: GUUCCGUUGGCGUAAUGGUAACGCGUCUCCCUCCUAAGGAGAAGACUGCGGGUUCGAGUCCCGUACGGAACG

- Variants of: B1
- MEASUREMENT_PROTOCOL: yeast fitness relative to wild type (ratio to wild type); higher = fitter; tRNA-Arg(CCU), competitive growth, 37 C, YPD
Variants at the floor of the assay were thinned out.
Label satisfied when yeast fitness >= 0.7; otherwise not satisfied.

Field: example entries. Status: answers known.
**Query** For this variant, is measured yeast fitness 0.7 or higher? A42U C49U G51A
**Result** not satisfied

**Query** Hi, just wondering whether C4A A36G G58C shows yeast fitness of 0.7 or higher.
**Result** not satisfied

**Query** Is it the case that C29U A69C has yeast fitness reaching or exceeding 0.7?
**Result** satisfied

**Query** Please check the record C22G C34U C66U and state if its yeast fitness is at or above 0.7.
**Result** not satisfied

**Query** Confirm if yeast fitness reported for the variant U8C U26A is 0.7 or above.
**Result** satisfied

**Query** Please indicate if the recorded yeast fitness for C31A U32C U53C C60G meets or exceeds 0.7.
**Result** not satisfied

More entries:
**Query** Is yeast fitness for C31U G56A at or above 0.7?
**Result** satisfied

**Query** Check if yeast fitness >= 0.7 (inclusive). Item: C4G A45G
**Result** satisfied

**Query** Is it the case that G9C G17A C27U has yeast fitness reaching or exceeding 0.7?
**Result** not satisfied

**Query** Is reported yeast fitness greater than or equal to 0.7 here: C5G A21G G44A G58C
**Result** not satisfied
